Test system: HepG2 viability, CellTiter-Glo ATP luminescence, 72 h
Protocol details: viability loss in human hepatoma cells – cell-based, CellTiter-Glo luminescence, cherry-pick, set 2, cytotoxicity control, dose response (AID 743395)
Measured property: AC35

> print(dat)
                                    molecule  measured.property    result
 1  COc1cccc(/C=N/NC(=O)C(=O)Nc2ccccc2OC(F)(F)C(F)F)c1O               AC35     15 µM
 2  CCC(=O)N1CC2(CCN(Cc3ccc(Cl)cc3)CC2)c2c([nH]c3cc(OC)ccc23)[C@H]1CO               AC35    9.3 µM
 3  COc1cc(Nc2c3c(nc4ccccc24)CCC3)cc(OC)c1OC               AC35   7.54 µM
 4  COc1ccccc1CNC(=O)Nc1nc(C(N)Cc2ccc(Cl)cc2)cs1 (stereo not given)               AC35   9.79 µM
 5  CC1OC(OC2CC(O)C3(CO)C4C(O)CC5(C)C(C6=CC(=O)OC6)CCC5(O)C4CCC3(O)C2)C(O)C(O)C1O (stereo not given)               AC35  0.201 µM
 6  Cc1ccc(C)c(C2NC(=O)c3ccccc3N2)c1 (stereo not given)               AC35   5.13 µM
 7  CC(=O)Nc1ccc(S(=O)(=O)NC2=C(N3CCN(Cc4ccccc4)CC3)C(=O)c3ccccc3C2=O)cc1               AC35   17.1 µM
 8  COc1ccc(-c2ccc3c(c2)[C@H]2[C@H](CCN2S(=O)(=O)c2ccc(OC)cc2)[C@H](CO)N3C)cc1               AC35    6.5 µM
 9  COc1c(O)cc2c(c1OC)-c1ccc(OC)c(=O)cc1C(NC(C)=O)CC2 (stereo not given)               AC35  0.453 µM
10  CC(=O)c1cccc(-c2ccnc3c2CC(C(=O)NCc2ccco2)O3)c1 (stereo not given)               AC35   6.09 µM
11  COc1ccc(NC(=O)Nc2ccc3c(c2)C(=O)N([C@H](C)CO)C[C@@H](C)[C@H](CN(C)Cc2ccc(C(F)(F)F)cc2)OCCCC[C@H](C)O3)cc1               AC35   13.9 µM
12        CCCC(=O)NC1=C(Cl)C(=O)c2ccccc2C1=O               AC35   9.76 µM
13  CC(=O)NC(c1ccc(C(C)C)cc1)c1ccc2cccnc2c1O (stereo not given)               AC35  0.861 µM
14  Cc1ccc(-c2ccc([C@H]3[C@@H](CO)N4CCCCN(C(=O)Nc5cccc(F)c5)C[C@H]34)cc2)cc1               AC35     11 µM
15  COc1cccc(N2CCN(C(=O)c3ccc(CS(=O)c4ccc(C)cc4)o3)CC2)c1 (stereo not given)               AC35  0.833 µM
16  Cc1cccc(N2CCN(C(=O)c3ccc4[nH]c(C)c(C)c4c3)CC2)c1C               AC35    2.5 µM
17  CCN1/C(=C/c2ccc3cc(C)cc(C)c3[n+]2CC)Sc2cc(C)ccc21               AC35  0.908 µM
18      NCC(=O)NNC(=O)OCC1c2ccccc2-c2ccccc21               AC35   12.7 µM
19  COc1ccc(NC(=O)C2(C)Cc3c(-c4cccc(NC(C)=O)c4)ccnc3O2)cc1 (stereo not given)               AC35   4.15 µM
20  COc1ccccc1Nc1nc(-c2sc(NC(=O)C(C)(C)C)nc2C)cs1               AC35   15.7 µM
21                     Nc1c2ccccc2nc2ccccc12               AC35   2.63 µM
22  CC1=Nc2cc(C(=O)NCC3CCCO3)ccc2Sc2ccc(Br)cc21 (stereo not given)               AC35   19.4 µM
23  CCOC(=O)c1ccc(N2CCOCC2)c(NC(=O)c2c(-c3ccccc3)noc2C)c1               AC35   3.87 µM
24  COc1cccc(S(=O)(=O)N2C[C@@H]3N[C@H](C2)C3c2ccc(-c3ccccc3F)cc2)c1 (stereo not given in full)               AC35   11.3 µM
25  Cc1c(C2Nc3ccccc3C2C)[nH]c2ccccc12 (stereo not given)               AC35   6.86 µM
